Cited source: PubChem BioAssay

PROTOCOL_TEXT: binders of probe aHhip on microarray, primary screen, stem cell growth factor project, biochemical, small-molecule microarray, fluorescence 635/667 (AID 1087);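 note: score merges spot fluorescence at 667nm with spot signal to noise ratio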
EXPERIMENTAL_CONTEXT: higher = more signal
Quick rule: composite z-score of at least 0.2 means fulfilled, below that means not fulfilled.

COMPOUND | QUALITATIVE_LABEL
COCC(=C=CC[C@@H](O)c1ccccc1OCCO)C[C@@H](O)COCc1ccccc1 | fulfilled
C[N+](C)(C)CCCC[C@@H]1NC(=O)[C@@H]2C[C@H](C(=O)NCCCCCNC(=O)CS)[C@H](c3cccc(OCCO)c3)N2C1=O | not fulfilled
CC(C)(C)N1CC=CC23O[C@@H]4C=CCCOC(=O)C4[C@H]2C(=O)N(CCCO)[C@@H]3C1=O (some centres undefined) | not fulfilled
C=CC[C@]1(C(=O)N2CCOCC2)N=C(c2ccc(OCCCO)cc2)O[C@H]1c1ccccc1CN=[N+]=[N-] | fulfilled
[N-]=[N+]=NCc1ccccc1C[C@]1(C(=O)NCCN2CCOCC2)COC(c2ccc(OCCCO)cc2)=N1 | not fulfilled
NC(=O)NCC#Cc1ccc2c(c1)[C@]1(C(=O)N2)[C@H](c2ccc(O)cc2)N2[C@H](c3ccccc3)[C@H](c3ccccc3)OC(=O)[C@H]2[C@@H]1C(=O)NC[C@H](O)c1ccccc1 | not fulfilled
CCCCC(O)C1C=CC2C(=O)N(Cc3ccccc3)C(=O)C2N1n1cnnc1 (centres undefined) | fulfilled
Cc1ccc(F)cc1S(=O)(=O)N[C@@H]1CCN(C(=O)c2ccc(OC(C)C)cc2)C1 | not fulfilled
COC(=O)[C@@]1(Cc2ccc(F)cc2)[C@H]2c3cc(C(=O)N(C)C)n(Cc4ccc(C)c(F)c4F)c3C[C@H]2CN1C(=O)c1ccccc1 | not fulfilled
C=CCOC(=O)[C@H]1[C@@H]2C(=O)O[C@@H](c3ccccc3)[C@@H](c3ccccc3)N2[C@@H](c2ccc(OCCOC(=O)[C@H]3C[C@H]4C(=O)N[C@@H](CCCCN(C)C)C(=O)N4[C@H]3c3ccc(O)cc3)cc2)[C@]12C(=O)Nc1ccccc12 | not fulfilled
COC(=O)c1ccc(OC)c(/C=C\CC(CCc2ccccc2)OC(=O)c2ccncc2)c1 (centres undefined) | not fulfilled
CN1C(=O)C2C=CC(C(O)c3ccc(F)cc3)N(N3CCCCC3)C2C1=O (centres undefined) | not fulfilled
COCCOC(=O)N1C(=O)[C@@]2(c3cc(C#Cc4ccc(OC)cc4)ccc31)[C@H](c1ccc(OCCO)cc1)N1[C@H](c3ccccc3)[C@H](c3ccccc3)OC(=O)[C@H]1[C@@H]2C(N)=O | not fulfilled
Cc1cc(C)c(C(O)C2C=CC3C(=O)N(c4ccccc4)C(=O)C3N2Nc2ccc([N+](=O)[O-])cc2)c(C)c1 (centres undefined) | not fulfilled

###

PROTOCOL_TEXT: probe aNOTCH2 binding on compound microarray – biochemical, small-molecule microarray, 635/667 nm fluorescence, primary screen (AID 1121);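 note: score merges feature fluorescence read at 667 nm with its signal to noise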
EXPERIMENTAL_CONTEXT: higher = more signal

MOLECULE | composite z-score
O=C1C2C=CC(C(O)c3ccccn3)N(Nc3ccccc3)C2C(=O)N1c1ccccc1 (stereo not drawn) | -0.0995
O=C1O[C@H](c2ccccc2)[C@H](c2ccccc2)N2[C@H]1[C@@H](C(=O)N1CCCCCCC1)[C@]1(C(=O)Nc3ccccc31)[C@H]2c1ccc(O)cc1 | 1.24
CCOc1cc(C(O)C2C=CC3C(=O)NC(=O)C3N2Nc2ccccn2)ccc1O (stereo not drawn) | 0.0065
O=C1C[C@@](C(=O)NCc2ccccc2)(c2ccc([N+](=O)[O-])cc2)[C@@H](c2ccc(CO)cc2I)N1C1CCCCC1 | 0.202
C=C[C@H](C)[C@H](OC(=O)Nc1ccc(SC)cc1)c1ccc(O)c2ccccc12 | -0.192
COCCOC(=O)N1C(=O)[C@@]2(c3ccccc31)[C@H](c1ccccc1OCCO)N1[C@H](c3ccccc3)[C@H](c3ccccc3)OC(=O)[C@H]1[C@@H]2C(=O)N1CCc2cc(OC)c(OC)cc2C1 | -0.0176
Cc1ccc(S[C@]2(C(=O)O)CC(=O)N(Cc3ccccc3C(F)(F)F)[C@@H]2c2ccc(CO)cc2)cc1 | -0.164
COC(=O)[C@]1(Cc2ccccc2N=[N+]=[N-])N=C(c2ccc(OCCCO)cc2)O[C@@H]1c1ccccc1 | -0.0487
C#CCOC(=O)N[C@H](C=CCCCC)c1ccccc1 | 0.0964
C=CCOC(=O)[C@@H]1[C@H]2C(=O)O[C@H](c3ccccc3)[C@H](c3ccccc3)N2[C@H](c2ccc(OCCOC(=O)[C@H]3C[C@H]4C(=O)N[C@@H](Cc5ccccc5)C(=O)N4[C@H]3c3cccc(OCCO)c3)cc2)[C@@]12C(=O)Nc1ccc(I)cc12 | -0.103
Cc1ccc(S[C@]2(C(=O)NCC(C)C)CC(=O)N(C3CCCCC3)[C@@H]2c2ccc(CO)cc2I)cc1 | -0.0862
CC(C)(C)OC(=O)CC[C@]1(C(=O)N2CCCCC2)N=C(c2ccc(OCCCO)cc2)O[C@H]1c1ccccc1CN=[N+]=[N-] | 0.381
C=C(C)[C@@H]1CC=C(C(O)C2C=CC3C(=O)N(C4CCCCC4)C(=O)C3N2Nc2ccc(OC)cc2)CC1 (stereo partly drawn) | -0.141
O=C1C2C=CC(C(O)c3ccc(Br)cc3)N(Nc3ccccc3)C2C(=O)N1c1ccccc1 (stereo not drawn) | 0.166
Cc1cc(C)c(C(O)C2C=CC3C(=O)N(c4ccccc4)C(=O)C3N2Nc2ccccc2)c(C)c1 (stereo not drawn) | 0.294
CCCc1cc2c(n1Cc1ccc(OC)cc1)C(C)C1CN(C(=O)c3ccccc3)C(C)(C(=O)OC)C21 (stereo not drawn) | 0.16
O=C(CS)NCCCCCNC(=O)[C@@H]1C[C@@H]2C(=O)N3CCC[C@H]3C(=O)N2[C@@H]1c1ccc(O)cc1 | -0.151
NC(=O)NCC#Cc1ccc2c(c1)[C@]1(C(=O)N2)[C@H](c2ccc(OCCO)cc2)N2[C@H](c3ccccc3)[C@H](c3ccccc3)OC(=O)[C@H]2[C@@H]1C(=O)N1CCN(c2ncccn2)CC1 | 0.0101
COc1ccccc1CN1C(=O)c2ccccc2[C@@H](C(=O)NCC(C)C)[C@@H]1c1ccc(CO)cc1 | -0.0226
COCCOC(=O)N1C(=O)[C@@]2(c3cc(C#Cc4ccc(OC)cc4)ccc31)[C@H](C(N)=O)[C@H]1C(=O)O[C@H](c3ccccc3)[C@H](c3ccccc3)N1[C@@H]2c1ccc(OCCO)cc1 | -0.0984
[N-]=[N+]=Nc1ccccc1C[C@]1(C(=O)NCCN2CCOCC2)N=C(c2ccc(OCCCO)cc2)O[C@H]1c1ccccc1N=[N+]=[N-] | 0.141
C[C@@]1([C@@H](NC(=O)c2cccs2)c2ccc(-c3ccccc3)cc2)C[C@H]1C1CCCCC1 | -0.343
CCCNC(=O)[C@@H]1c2ccccc2C(=O)N(CC23CC4CC(CC(C4)C2)C3)[C@H]1c1ccc(CO)cc1 | 0.0521
CC(C)C(CO)N1C(=O)[C@@H]2[C@H]3C(=O)OCC=C[C@H]3OC23C=CCN(CCN2CCOCC2)C(=O)[C@@H]13 (stereo partly drawn) | -0.164
COC(=O)[C@@]1(Cc2ccc(F)cc2)[C@@H]2[C@@H](CC(=O)[C@H]2CC(=O)C(=O)N2CCCC2)CN1C(=O)c1ccccc1 | 0.239
COc1ccc(C#Cc2ccc3c(c2)[C@]2(C(=O)N3)[C@H](c3ccc(OCCO)cc3)N3[C@H](c4ccccc4)[C@H](c4ccccc4)OC(=O)[C@H]3[C@@H]2C(=O)N2CCN(c3ncccn3)CC2)cc1 | -0.157
COCCOC(=O)N1C(=O)[C@@]2(c3cc(C#Cc4ccc(OC)cc4)ccc31)[C@H](C(=O)N1CCc3cc(OC)c(OC)cc3C1)[C@H]1C(=O)O[C@H](c3ccccc3)[C@H](c3ccccc3)N1[C@@H]2c1ccc(O)cc1 | 0.357
CCCC[C@@H](O)C1=C(COc2ccccc2)Cn2c(=O)n(-c3ccccc3)c(=O)n2[C@H]1CO | -0.148

###

TESTED_TARGET: Left-right determination factor 2 (Homo sapiens)
PROTOCOL_TEXT: small molecules binding LEFTY2 protein – biochemical, small-molecule microarray, 635 nm fluorescence scan, primary screen (AID 1110)
EXPERIMENTAL_CONTEXT: higher = more signal
Quick reference for composite z-score among some compounds

COMPOUND | composite z-score
CN(C)CCCN1C(=O)[C@@]2(Cc3ccccc31)c1ccccc1C(=O)N(Cc1ccccc1)[C@H]2c1ccc(CO)cc1 | -0.0359
C=C(/C(=C/C[C@@H](OC(=O)c1ccncc1)c1cccc(OCCO)c1)c1cc(C(=O)OC)ccc1OC)C(C)C | 0.521
O=C1O[C@H](c2ccccc2)[C@H](c2ccccc2)N2[C@H]1[C@@H](C(=O)NC[C@H](O)c1ccccc1)[C@]1(C(=O)Nc3ccccc31)[C@H]2c1ccccc1OCCO | -0.11
Cc1ccc(S[C@]2(C(=O)O)CC(=O)N(C3CCCCC3)[C@@H]2c2ccc(CO)cc2)cc1 | -0.442
CCCCC(=C=CC[C@H](O)c1ccccc1OCCO)C[C@H](O)c1ccccn1 | 0.377
COC(=O)C(CC#Cc1ccc2c(c1)[C@]1(C(=O)N2)[C@H](c2ccc(O)cc2)N2[C@H](c3ccccc3)[C@H](c3ccccc3)OC(=O)[C@H]2[C@@H]1C(N)=O)C(=O)OC | -0.91
C=CCOC(=O)[C@@H]1[C@H]2C(=O)O[C@H](c3ccccc3)[C@H](c3ccccc3)N2[C@H](c2ccc(OCCOC(=O)[C@H]3C[C@H]4C(=O)N[C@@H](Cc5ccccc5)C(=O)N4[C@H]3c3cccc(OCCO)c3)cc2)[C@@]12C(=O)Nc1ccc(I)cc12 | 0.413
COCCOC(=O)N1C(=O)[C@@]2(c3cc(C#CCNC(N)=O)ccc31)[C@H](C(N)=O)[C@H]1C(=O)O[C@H](c3ccccc3)[C@H](c3ccccc3)N1[C@@H]2c1ccc(OCCO)cc1 | 0.582
COc1cccc(C[C@H]2C[C@@H](CO[Si](C(C)C)(C(C)C)C(C)C)N3C(=O)[C@]4(C(C)=O)O[C@]23[C@H]2C(=O)N(C)C(=O)[C@H]24)c1 | 0.717
C#CCNS(=O)(=O)N(C)C | 0.713
Cc1ccc(F)cc1S(=O)(=O)N[C@@H]1CCN(C(=O)c2ccc(OC(C)C)cc2)C1 | 1.08
N#Cc1ccc(NN2C(C(O)c3ccco3)C=CC3C(=O)N(c4ccccc4)C(=O)C32)cc1 (centres undefined) | -0.0879
C/C=C/[C@@H](CCn1cc([C@H](O)c2ccccc2)nn1)[Si](C)(C)c1ccc(OC)cc1 | -1.32
COCCCNC(=O)[C@@H]1c2ccccc2C(=O)N(c2ccc(C)cn2)[C@H]1c1ccc(CO)cc1 | -1.83
